List of TGI values.
Tested on: SNB-19 CNS
method_notes: NCI tumour cell line growth inhibition, 48 h
assay_endpoint: TGI (µM)

INSERT INTO results (compound, relation_sign, data_value) VALUES
  ('COc1ccccc1NC(=O)c1sc2ncn(CCOc3ccccc3)c(=O)c2c1C', '>', 50),
  ('Nc1nc(SCC#CCCl)c2[nH]cnc2n1', '=', 23.2),
  ('CCN(CC)C(=O)N[C@@H](CC(C)C)C(=O)NC', '>', 100),
  ('O=C(/C=C/c1ccco1)Nc1ncc(Cc2cc(Cl)ccc2Cl)s1', '>', 100),
  ('ClC/C=C/CSc1ncnc2nc[nH]c12', '>', 100),
  ('C/C(=C\COP(=O)(O)OP(=O)(O)O)CC/C=C(\C)CNc1c(F)c(F)c(F)c(F)c1F', '>', 100),
  ('NP1(Oc2ccc(F)cc2)=NP(N)(Oc2ccc(F)cc2)=NP(Oc2ccc(F)cc2)(Oc2ccc(F)cc2)=N1 (stereo not given)', '=', 22.8),
  ('O=C1c2ccccc2-c2cn(Cc3ccccc3)c3cccc(c23)C1c1cccnc1 (stereo not given)', '>', 50),
  ('COC(=O)c1sc2c(c1C(=O)OC)C(=Nc1ccc(OC)cc1)SC2=Nc1ccc(OC)cc1', '=', 2.88),
  ('COc1cc2c3c(c4ccc(O)cc4c2cc1OC)[C@@H](O)[C@@H]1CCCN1C3', '=', 0.00216);

----------
System: A498 renal
method_notes: NCI tumour cell line growth inhibition, 48 h
Item-by-item account of TGI
assay_endpoint: TGI (µM)

INSERT INTO assay_data (compound, assay_endpoint, relation_sign, data_value) VALUES
  ('CC/C(=C/c1ccc(OC)cc1)[N+](=O)[O-]', 'TGI', '=', 9.09),
  ('CSc1ccc(-c2cn3ccsc3n2)cc1', 'TGI', '>', 100),
  ('CCc1nnc2sc(-c3ccc(-c4ccccc4[N+](=O)[O-])o3)nn12', 'TGI', '>', 100),
  ('CC(C)=CC(=O)c1[nH]c2ccccc2c1CC(=O)NCCc1cnc[nH]1', 'TGI', '>', 100),
  ('NC1CC(=O)c2c(I)sc(I)c21 (configuration not stated)', 'TGI', '=', 37.1),
  ('CC(C)C(Sc1nc(N)nc2nc[nH]c12)C(=O)O (configuration not stated)', 'TGI', '>', 100),
  ('O=C1N(c2ccc(Cl)cc2)C(=O)C2(SC=NN2Cc2ccccc2)N1c1ccc(Cl)cc1 (configuration not stated)', 'TGI', '>', 100),
  ('CCCNC(=O)c1cc(OC)c(OC)cc1NC(=O)C12CC3CC(CC(C3)C1)C2', 'TGI', '=', 31.6),
  ('CCc1ccc([OH2+])c(C(=O)[O-])c1.CCc1ccc([OH2+])c(C(=O)[O-])c1.CCc1ccc([OH2+])c(C(=O)[O-])c1.CCc1ccc([OH2+])c(C(=O)[O-])c1.[Cu+2].[Cu+2]', 'TGI', '=', 40.5),
  ('Cc1n[nH]c(=O)c2c3c([nH]c12)-c1ccccc1C3', 'TGI', '>', 100),
  ('O=[N+]([O-])c1ccc(N=P(c2ccccc2)(c2ccccc2)c2ccccc2)n2nnnc12', 'TGI', '>', 100),
  ('O=C(NCC(O)COc1ccccc1)c1ccccc1O (configuration not stated)', 'TGI', '>', 100),
  ('COc1ccc(Cl)cc1NC(=O)O/N=C(\Cl)C(C)C', 'TGI', '=', 46.8),
  ('CN1N=C(c2ccncc2)OC1c1ccc(C(F)(F)F)cc1 (configuration not stated)', 'TGI', '>', 100),
  ('NP1(Oc2ccc(F)cc2)=NP(N)(Oc2ccc(F)cc2)=NP(Oc2ccc(F)cc2)(Oc2ccc(F)cc2)=N1 (configuration not stated)', 'TGI', '=', 8.71),
  ('COc1ccc(C(CC(=O)c2cccs2)C(=O)c2ccc3c(c2)OCO3)cc1 (configuration not stated)', 'TGI', '>', 100),
  ('O=c1[nH]nc(-c2cccc([N+](=O)[O-])c2)[nH]1', 'TGI', '>', 100),
  ('Clc1ccc(Cc2nc3cc4ccccc4cc3[nH]2)cc1Cl', 'TGI', '=', 27.7),
  ('Nc1ncc(CN2CCCC2)c(-c2ccccc2O)n1', 'TGI', '>', 750),
  ('COc1cccc(/C=C\C(=O)c2ccccc2)c1', 'TGI', '=', 26.2),
  ('Nc1nc(SCC#CCCl)c2[nH]cnc2n1', 'TGI', '=', 6.87),
  ('NS(=O)(=O)c1ccc(Nc2c3ccccc3nc3c(C(=O)NC(CO)(CO)CO)cccc23)cc1', 'TGI', '=', 0.466);

----------
Test system: SF-539 CNS
method_notes: NCI tumour cell line growth inhibition, 48 h; in the data active = GI50 below about 0.43 µM; inactive = the rest
Possible outcomes: active, inactive

INSERT INTO measurements (compound, target_or_system, class_assignment) VALUES
  ('COc1cc(C2c3cc4c(cc3[C@@H](Nc3ccc(F)cc3)C3COC(=O)[C@H]23)OCO4)cc(OC)c1O (some centres undefined)', 'SF-539 CNS', 'inactive'),
  ('CCOC(=O)c1c(CN2CCCCC2)nc2ccc(Cl)cc2c1-c1ccccc1', 'SF-539 CNS', 'inactive'),
  ('Cc1c2ccncc2c(C)c2c1[nH]c1ccc(O)cc12', 'SF-539 CNS', 'inactive'),
  ('COC(=O)[C@]12CC[C@@H](C)[C@H](C)[C@@H]1C1=CC[C@@H]3[C@@]4(C)C[C@@H](OC(C)=O)[C@H](OC(C)=O)[C@@](C)(COC(C)=O)[C@@H]4[C@H](O)C[C@@]3(C)[C@]1(C)CC2', 'SF-539 CNS', 'inactive'),
  ('COc1cc(C(=O)/C=C/c2c[nH]c3ccccc23)cc(OC)c1OC', 'SF-539 CNS', 'active'),
  ('COc1ccc(/C=C\c2cc(OC)c(OC)c(OC)c2)cc1NC(=O)/C=C/c1cc(OC)c(OC)c(OC)c1', 'SF-539 CNS', 'inactive'),
  ('COc1cc(/C=N\Nc2ccccc2)ccc1OC(=O)c1ccccc1', 'SF-539 CNS', 'inactive'),
  ('COc1cc(OC)c(/C=C/S(=O)(=O)Cc2ccc(OC)c(N)n2)c(OC)c1', 'SF-539 CNS', 'active'),
  ('CC[C@H](C)[C@H](NC(=O)CN(C)C)C(=O)N(C)[C@H](C[C@@H](OC(C)=O)c1nc(C(=O)NC23C4C5C2C2C3C4C52C(=O)OC)cs1)C(C)C (some centres undefined)', 'SF-539 CNS', 'inactive'),
  ('CC1CCc2c(C(=O)Nc3ncc(Cc4cccc([N+](=O)[O-])c4)s3)csc2C1 (centres undefined)', 'SF-539 CNS', 'inactive'),
  ('CC(=O)[CH-]C(=O)c1ccccc1.CC(=O)[CH-]C(=O)c1ccccc1.Cl.[O-]CCc1ccccn1.[O-]CCc1ccccn1.[Ti+4]', 'SF-539 CNS', 'inactive'),
  ('CSc1ccc(-c2cn3ccsc3n2)cc1', 'SF-539 CNS', 'inactive'),
  ('COc1ccccc1NC(=O)c1sc2ncn(CCOc3ccccc3)c(=O)c2c1C', 'SF-539 CNS', 'inactive'),
  ('C=C(CN1CCN(c2cc(C(F)(F)F)cc(C(F)(F)F)c2)CC1)c1ccc(C(=O)Nc2ccccc2N)cc1', 'SF-539 CNS', 'inactive'),
  ('O=C(O)CCCCCNCc1cc2cc3c(cc2c2cc(OCc4ccccc4)ccc12)OCO3', 'SF-539 CNS', 'inactive'),
  ('CCCCCn1sc(=O)n(Cc2ccc(CNC(=O)C(C)c3ccc(CC(C)C)cc3)cc2)c1=O (centres undefined)', 'SF-539 CNS', 'inactive'),
  ('O=C(/C=C/c1ccco1)Nc1ncc(Cc2cc(Cl)ccc2Cl)s1', 'SF-539 CNS', 'active'),
  ('CC/C(=C/c1ccc(OC)cc1)[N+](=O)[O-]', 'SF-539 CNS', 'inactive');

----------
Reported TGI values are given for each entry in this list.
Test system: OVCAR-4 ovarian
method_notes: NCI tumour cell line growth inhibition, 48 h
assay_endpoint: TGI (µM)

INSERT INTO measurements (structure_notation, relation_sign, data_value) VALUES
  ('CN1CCN(Cc2ccc(NC(=O)c3cncc(C#Cc4c(N)ncc5ccccc45)c3)cc2C(F)(F)F)CC1', '=', 1.1),
  ('CN1C/C(=C\c2ccccc2)C2=NN(C(N)=S)[C@H](c3ccccc3)[C@@H]2C1', '>', 100),
  ('N#Cc1cnn(C(=O)c2nn(-c3ccc(Cl)cc3)cc2O)c1N', '=', 37.4),
  ('CN(CCNC(=O)c1nn(C)c2c1Cc1ccccc1-2)CCNC(=O)c1nn(C)c2c1Cc1ccccc1-2', '=', 53.1),
  ('C#Cc1c(C)c(/C=C/C(C)=C\C(=O)OC)n(C)c1C', '>', 100);
